target: maltase (porcine intestinal mucosa); experiment: Glucosidase inhibitory activity, maltase (maltose as substrate); assay type: biochemical; settings: read-out: IC50 (maltase), 50% inhibition concentration, pH 6.8, 37° C., 10 minutes
pIC50: −log10 of the molar value.
Label Not satisfied if pIC50 falls below 6; label Satisfied in every other case.

Illustrative cases are given below, each with its answer.
N[C@H]1C[C@H](CO)C(N[C@H]2C[C@](O)(CO)[C@@H](O)[C@H](O)[C@H]2O)[C@H](O)[C@H]1O (single isomer, unassigned) [Example 8,4-amino derivative from the first eluted component of Example 7] | Not satisfied
CO[C@H]1O[C@H](CO)[C@H](N[C@H]2C[C@](O)(CO)[C@@H](O)[C@H](O)[C@H]2O)[C@H](O)[C@H]1O [Example 4, Galactopyranoside isomer] | Satisfied
OC[C@H]1OC(O)[C@H](O)C(N[C@H]2C[C@](O)(CO)[C@@H](O)[C@H](O)[C@H]2O)[C@@H]1O (stereo partly shown) | Satisfied
OCC1=C[C@H](NC2[C@@H](O)C(O)O[C@H](CO)[C@H]2O)[C@H](O)[C@@H](O)[C@@H]1O (stereo partly shown) | Not satisfied
N[C@H]1C[C@H](CO)C(N[C@H]2C[C@](O)(CO)[C@@H](O)[C@H](O)[C@H]2O)[C@H](O)[C@H]1O (single isomer, unassigned) [Example 8,4-amino derivative from the later eluted component of Example 7] | Not satisfied

Query :: Could you please find out whether CCOC(=O)NC1CC(NC(=O)OCC)C(N[C@H]2C[C@](O)(CO)[C@@H](O)[C@H](O)[C@H]2O)C(O)C1O (stereo partly shown) has pIC50 that meets 6 or exceeds it?
Result :: Not satisfied

Query :: Could you please find out whether C[C@H]1O[C@H](O[C@H]2[C@H](O)[C@@H](O)[C@@H]3OC[C@H]2O3)[C@H](O)[C@@H](O)[C@@H]1N[C@H]1C[C@](O)(CO)[C@@H](O)[C@H](O)[C@H]1O [Example 25, isomer (b)] has pIC50 that meets 6 or exceeds it?
Result :: Satisfied

Origin of measurements: patent US4595678A
